Measurement Target: T1, PSMA Fab
T1 construct: Used biotinylated and captured on neutravidin plates in the phage ELISA; also called Anti-PSMA Fab; 006 PSMA Fab
Assay: phage ELISA; biotinylated PSMA Fab on neutravidin plate, pre-incubated with PSMA antigen as competitor; anti-M13-HRP
Parameter Measured: Phage binding ELISA signal, Anti-PSMA Fab in presence of PSMA antigen

Binder	Assay Value
TGMACVPWWMCEGF (also called Peptide-180 library clone) [Phage-3732]	0.0812
FTAQCVPLWMCLGF (also called Peptide-180 library clone) [Phage-3736]	0.0789
FTARCEPSWMCVGF (also called Peptide-180 library clone) [Phage-3730]	0.0626
VNRMCVPVWMCQGF (also called Peptide-180 library clone) [Phage-3739]	0.0729
